- system under test: Voltage-gated inwardly rectifying potassium channel KCNH2 (Homo sapiens)
- Sequence (Q12809 whole entry): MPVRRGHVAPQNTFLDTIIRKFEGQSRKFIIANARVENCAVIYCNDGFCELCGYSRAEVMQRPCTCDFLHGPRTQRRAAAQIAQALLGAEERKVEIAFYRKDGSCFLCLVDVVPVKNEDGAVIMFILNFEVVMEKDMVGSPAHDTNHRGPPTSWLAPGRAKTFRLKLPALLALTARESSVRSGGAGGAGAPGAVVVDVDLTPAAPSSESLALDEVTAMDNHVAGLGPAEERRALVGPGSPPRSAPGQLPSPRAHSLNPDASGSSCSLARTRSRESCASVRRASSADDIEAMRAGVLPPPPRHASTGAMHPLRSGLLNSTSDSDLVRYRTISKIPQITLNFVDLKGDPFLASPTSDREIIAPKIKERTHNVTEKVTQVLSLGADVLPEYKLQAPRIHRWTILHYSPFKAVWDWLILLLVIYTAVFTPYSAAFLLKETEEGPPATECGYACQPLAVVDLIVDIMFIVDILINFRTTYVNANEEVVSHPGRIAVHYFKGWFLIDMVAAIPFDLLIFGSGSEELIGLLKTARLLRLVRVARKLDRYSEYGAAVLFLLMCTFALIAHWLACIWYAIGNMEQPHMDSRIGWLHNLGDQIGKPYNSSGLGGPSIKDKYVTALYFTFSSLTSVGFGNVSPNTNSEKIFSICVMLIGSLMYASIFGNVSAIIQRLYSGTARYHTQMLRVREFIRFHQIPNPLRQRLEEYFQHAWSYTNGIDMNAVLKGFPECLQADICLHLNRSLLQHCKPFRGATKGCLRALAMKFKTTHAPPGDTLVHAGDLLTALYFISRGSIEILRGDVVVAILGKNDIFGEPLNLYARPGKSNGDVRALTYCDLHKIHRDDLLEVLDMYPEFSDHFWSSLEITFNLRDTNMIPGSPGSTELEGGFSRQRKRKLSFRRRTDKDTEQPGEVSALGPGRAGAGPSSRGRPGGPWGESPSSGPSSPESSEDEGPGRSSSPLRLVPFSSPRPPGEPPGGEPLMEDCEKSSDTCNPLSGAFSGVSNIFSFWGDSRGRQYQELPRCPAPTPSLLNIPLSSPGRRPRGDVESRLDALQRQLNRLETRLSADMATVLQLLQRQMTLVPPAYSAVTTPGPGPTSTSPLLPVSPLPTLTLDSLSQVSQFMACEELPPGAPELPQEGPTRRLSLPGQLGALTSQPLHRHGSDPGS
- experiment description: Inhibition of human ERG expressed in HEK293 cells
- Format: cell-based
- experimental parameters: read-out: pIC50 (converted)
# IC50 annotations
Unit nM implied. Number only.

Would you please look over these solved cases?
>>> reported_result("Cc1cc(Cl)cc(N2C=Nc3cc(C)c(-c4cc(F)cc(C(N)=O)c4)cc3C2C(=O)N(C)C[C@@H]2CCCN2)c1 (some centres undefined)")
2510
>>> reported_result("Cc1cc(Cl)cc(N2C=Nc3cc(C)c(-c4cccc(F)c4O)cc3C2C(=O)N(C)C[C@@H]2CCCN2)c1 (some centres undefined)")
5010
>>> reported_result("Cc1cc(Cl)cc(N2C=Nc3cc(C)c(-c4cc(O)ccc4F)cc3C2C(=O)N(C)C[C@@H]2CCCN2)c1 (some centres undefined)")
501

Field: next compound
May I ask what IC50 has been recorded for Cc1cc(Cl)cc(N2C=Nc3cc(C)c(-c4cc(O)cc(F)c4)cc3C2C(=O)N(C)C[C@@H]2CCCN2)c1 (some centres undefined) ?
631

Data credit: ChEMBL document CHEMBL4665730
